# System: Fibroblast
# assayText: Multiplex assay against human fibroblast
# Type: toxicity, cell-based
# condition: 48 h, 1 µM, compound concentration 1 uM, replicate 2
measuredProperty: Population Apoptotic (%)

In [3]: df
Out[3]:
                                   compound  recordedvalue
0  CCc1nn(CCCN2CCN(c3cccc(Cl)c3)CC2)c(=O)n1CCOc1ccccc1.Cl [NEFAZODONE HYDROCHLORIDE]             50
1  Cc1c[nH]c2nccc(Oc3c(F)cc(Nc4cc(Cl)nc(N)n4)cc3F)c12            100
2  COc1cc(Nc2nccc(-c3cnn4nc(OC)ccc34)n2)cc(C(F)(F)F)c1             66
